Below, each entry is listed with its recorded % inhibition Apo pol 5'.
Assayed Target: P. falciparum apicoplast DNA polymerase (Pf-apPOL) (Plasmodium falciparum, UniProt Q8ILY1)
Sequence (Q8ILY1 entry or part of it): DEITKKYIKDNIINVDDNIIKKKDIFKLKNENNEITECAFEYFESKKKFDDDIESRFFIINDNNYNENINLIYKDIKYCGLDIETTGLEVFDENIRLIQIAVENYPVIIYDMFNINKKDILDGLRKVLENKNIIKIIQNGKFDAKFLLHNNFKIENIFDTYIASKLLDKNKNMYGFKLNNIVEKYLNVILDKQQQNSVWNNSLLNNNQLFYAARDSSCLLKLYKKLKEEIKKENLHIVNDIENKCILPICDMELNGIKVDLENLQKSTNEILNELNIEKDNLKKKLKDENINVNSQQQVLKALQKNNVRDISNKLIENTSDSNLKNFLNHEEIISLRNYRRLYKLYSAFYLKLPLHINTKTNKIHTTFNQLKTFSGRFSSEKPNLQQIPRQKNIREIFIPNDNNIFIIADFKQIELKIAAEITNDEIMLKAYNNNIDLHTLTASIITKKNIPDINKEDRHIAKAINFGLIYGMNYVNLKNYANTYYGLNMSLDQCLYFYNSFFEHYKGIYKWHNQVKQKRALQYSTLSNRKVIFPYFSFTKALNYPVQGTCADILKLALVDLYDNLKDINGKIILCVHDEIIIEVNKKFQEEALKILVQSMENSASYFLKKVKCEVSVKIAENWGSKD
Protocol Description: Fluorescence-based high-throughput DNA polymerase assay (molecular beacon), primary screen and dose-response
Format: biochemical
Assay Setup: DRC-2; concentration 20; 5'
Assay Metric: % inhibition Apo pol 5' (%)

O=[N+]([O-])c1ccc(SCc2ccco2)c2cccnc12 : 47
CCOc1ccc2cc(C3=NN(C(=O)CCC(=O)O)C(c4ccc(C)cc4)C3)c(=O)[nH]c2c1 (stereo not drawn) : 42
COc1cc(/C=C2\C(=O)N(c3ccc(C(=O)O)cc3)N=C2C(F)(F)F)ccc1OCC(C)C : 44
O=C1c2ccccc2C(=O)c2c1oc1c3c(ccc21)OCN(C1CCCC1)C3 : 43
COc1ccc(-c2occ(C(=O)O)c2C(=O)O)cc1 : 43
CCc1ccccc1NC(=O)c1ccc(-c2ncccc2NC(C)=O)cc1 : 43
O=C(Nc1c2c(nn1-c1ccccc1)CSC2)c1ccco1 : 52
Cc1ccnc(NS(=O)(=O)c2ccc(-n3cccc3)cc2)n1 : 49
O=C(O)c1cc([N+](=O)[O-])c(N2CCN(c3cccc(C(F)(F)F)c3)CC2)c([N+](=O)[O-])c1 : 20
